# pIC50 annotations
- target entity: PI3 Kinase (p120γ) (h) (Homo sapiens, UniProt P48736)
- Construct: endogenous in cells; host or cells: RAW264.7
- Sequence (P48736 whole entry): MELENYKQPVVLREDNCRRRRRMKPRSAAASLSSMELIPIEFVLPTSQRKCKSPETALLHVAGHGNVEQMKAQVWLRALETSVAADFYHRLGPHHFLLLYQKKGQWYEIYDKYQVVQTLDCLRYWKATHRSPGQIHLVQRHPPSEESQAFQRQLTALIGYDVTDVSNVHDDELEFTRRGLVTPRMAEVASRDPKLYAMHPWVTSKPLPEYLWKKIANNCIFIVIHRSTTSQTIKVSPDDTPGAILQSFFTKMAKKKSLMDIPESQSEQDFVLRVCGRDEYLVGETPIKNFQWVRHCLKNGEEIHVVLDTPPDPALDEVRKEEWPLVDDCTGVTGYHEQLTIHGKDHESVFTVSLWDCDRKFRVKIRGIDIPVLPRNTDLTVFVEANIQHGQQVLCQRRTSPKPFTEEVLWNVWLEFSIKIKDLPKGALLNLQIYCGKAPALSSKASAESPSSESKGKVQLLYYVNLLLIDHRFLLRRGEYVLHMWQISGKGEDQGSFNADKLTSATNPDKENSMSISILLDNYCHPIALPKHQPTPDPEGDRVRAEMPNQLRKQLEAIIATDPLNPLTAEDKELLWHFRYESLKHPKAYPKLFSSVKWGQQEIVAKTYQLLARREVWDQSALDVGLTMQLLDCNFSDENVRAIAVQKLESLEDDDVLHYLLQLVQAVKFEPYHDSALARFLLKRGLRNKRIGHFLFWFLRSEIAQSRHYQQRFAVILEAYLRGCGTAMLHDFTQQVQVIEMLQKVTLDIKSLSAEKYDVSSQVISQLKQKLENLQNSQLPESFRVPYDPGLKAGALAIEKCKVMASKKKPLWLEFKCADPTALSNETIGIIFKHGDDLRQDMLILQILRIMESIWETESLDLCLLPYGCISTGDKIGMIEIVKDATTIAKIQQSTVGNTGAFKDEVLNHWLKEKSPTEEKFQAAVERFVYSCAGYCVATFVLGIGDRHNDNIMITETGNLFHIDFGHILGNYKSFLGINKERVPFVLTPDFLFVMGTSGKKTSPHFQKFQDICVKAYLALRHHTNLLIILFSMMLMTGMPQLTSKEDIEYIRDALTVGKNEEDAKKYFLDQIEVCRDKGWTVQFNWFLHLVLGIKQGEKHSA
- test description: Inhibition of phosphatidylinositol 3-kinase gamma (PI3K γ), pAkt Western blotting in C5a-stimulated RAW264.7 macrophages
- Type: cell-based, mouse
- assay setup: ATP=10 uM, sample concentration=100 nM
pIC50: −log10 of the molar value.

C[C@H](Nc1ncnc2[nH]ccc(=O)c12)c1cc2ccc(F)cc2nc1-c1ccccn1
6.30 to 8.00
Cc1cccc(-n2c([C@@H]3CCCN3c3nc(N)nc4c3C(=O)N(C)CN4)nc3cccc(Cl)c3c2=O)c1
< 6.30
CN1CNc2nc(N)nc(N3CCC[C@H]3c3nc4cccc(Cl)c4c(=O)n3-c3ccccc3)c2C1=O
6.30 to 8.00

The recorded pIC50 for entry `CN1CNc2ncnc(N3CCC[C@H]3c3nn4ccc(Cl)c4c(=O)n3-c3ccccc3)c2C1=O` equals 6.30 to 8.00

The recorded pIC50 for entry `CN1CNc2ncnc(N3CCC[C@H]3c3cc4cccc(Cl)c4c(=O)n3-c3ccccc3)c2C1=O` equals 6.30 to 8.00

The recorded pIC50 for entry `C[C@H](Nc1ncnc2c1C(=O)N(C)CN2)c1nc2cccc(Cl)c2c(=O)n1-c1cccnc1` equals 6.30 to 8.00

The recorded pIC50 for entry `CC[C@H](Nc1ncnc2c1C(=O)N(C(C)C)CN2)c1nc2cccc(F)c2c(=O)n1-c1ccccc1` equals < 6.30

The recorded pIC50 for entry CC(Nc1ncnc2[nH]ccc(=O)c12)c1nc2cccc(Cl)c2cc1-c1ccccn1 (centres unmarked) equals 6.30 to 8.00

The recorded pIC50 for entry `C[C@H](Nc1ncnc2[nH]ccc(=O)c12)c1cc2ccc(F)cc2nc1-c1cccc(F)c1` equals 6.30 to 8.00

The recorded pIC50 for entry `C[C@H](Nc1ncnc2[nH]ccc(=O)c12)c1nc2ccc(F)cc2c(-c2ccccn2)c1-c1ccccc1` equals 6.30 to 8.00
